experiment: Inhibition of almond beta-D-glucosidase; parameters: species or system Prunus dulcis
metric: IC50

OC[C@H]1NC[C@@H](O)[C@@H]1O
500 µM
OC[C@H]1N=C[C@@H](O)[C@@H]1O [NECTRISINE]
2.2 µM
O[C@H]1[C@H](O)CN[C@H]1O
200 µM
O=S(=O)(O)C1NC[C@H](O)[C@H]1O (stereo not given in full)
2000 µM

// moving on: another record for IC50
Which value of IC50 has been reported for O=S(=O)(O)C1NC[C@@H](O)[C@@H]1O (stereo not given in full) in the records?
180 µM

----------
assay: Inhibition of jack bean alpha-D-mannosidase; design: species or system Canavalia ensiformis
metric: pKi
Formally, pKi is defined as -log10 of the concentration c, with c in mol/L.

O[C@@H]1CN=C[C@@H]1O
4.70
O[C@@H]1C=NC[C@@H]1O
5.70
O[C@H]1[C@H](O)CN[C@H]1O
5.30
OC[C@H]1NC(O)[C@H](O)[C@@H](O)[C@@H]1O (stereo not given in full)
3.30

Now consider the entry below.
Item O=S(=O)(O)C1NC[C@@H](O)[C@@H]1O (stereo not given in full) has what recorded pKi?
5.30

----------
experiment: Inhibition of snail beta-D-mannosidase; design: species or system Cornu aspersum
metric: IC50

Report IC50 for O[C@H]1[C@H](O)CN[C@H]1O please.
1000 µM

----------
test: Inhibition of Aspergillus wentii beta-D-mannosidase
metric: Ki
I'd appreciate it if you wrote the number followed by its unit.

OC[C@H]1N=C[C@@H](O)[C@@H]1O
42 µM

Okay, now this compound:
Given the entry OC[C@H]1NC(O)[C@H](O)[C@@H](O)[C@@H]1O (some centres not stated) , report its measured Ki.
900 µM

Each recorded value in this set is attributed to ChEMBL document CHEMBL1148003.
